Each recorded value in this set is attributed to patent US9765018B2.

- systemName: IDO (Homo sapiens (Human), UniProt P14902)
- Sequence (P14902 whole entry): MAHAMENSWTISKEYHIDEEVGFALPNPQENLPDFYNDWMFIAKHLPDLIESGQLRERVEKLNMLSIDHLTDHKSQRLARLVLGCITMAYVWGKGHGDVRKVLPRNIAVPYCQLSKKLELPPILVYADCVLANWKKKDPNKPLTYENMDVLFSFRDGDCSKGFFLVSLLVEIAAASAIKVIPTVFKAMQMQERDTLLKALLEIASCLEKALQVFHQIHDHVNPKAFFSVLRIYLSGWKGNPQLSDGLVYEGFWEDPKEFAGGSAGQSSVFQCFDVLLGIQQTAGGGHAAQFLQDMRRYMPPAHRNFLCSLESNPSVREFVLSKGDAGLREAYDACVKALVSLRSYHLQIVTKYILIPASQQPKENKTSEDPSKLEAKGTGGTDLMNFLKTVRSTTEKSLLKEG
- testProtocol: Kynurenine assay in IFN-γ-stimulated Hela cells
- Format: cell-based
- conditionNotes: 20 h, read-out: Hela Kyurenine (IC50)
Measured IC50 by item
Kindly answer with a numeric value in µM, unit omitted.

Examples from the recorded data:
Cc1ccc(NC(=O)Nc2cc(-c3ccc(C(=O)O)c(F)c3)ccc2Oc2ccccc2C(C)(C)C)cc1 [Example 218] : 0.65
Cc1cccc(NC(=O)Nc2cc(-c3ccc(Cl)cc3C(=O)O)ccc2Oc2ccccc2C(C)(C)C)c1 [Example 160] : 1.32
O=C(Nc1ccc(Cl)cc1)Nc1cc(-c2ccccc2-c2nnn[nH]2)cc(CC2CC2)c1OC1CCOCC1 [Example 331] : 0.52
Cc1cccc(NC(=O)Nc2cc(-c3cccc(C(=O)O)c3)ccc2Oc2ccccc2C(C)(C)C)c1 [Example 225] : 0.57
Cc1ccccc1NC(=O)Nc1cc(-c2cccc(C(=O)O)c2)ccc1Oc1ccccc1C(C)(C)C [Example 224] : 1.02
CC(C)(C)c1ccccc1Oc1ccc(-c2ccc(C(=O)O)c(F)c2)cc1NC(=O)Nc1ccccc1Cl [Example 217] : 1.25

Challenge: For IDO (Homo sapiens (Human), UniProt P14902), give the measured IC50 of the entry Cc1ccc(NC(=O)Nc2cc(-c3cc(Cl)cc(C(=O)O)c3)cnc2Oc2ccccc2C(C)(C)C)cc1 [Example 337]
Response given: 2.26

----------
- systemName: IDO (Homo sapiens (Human), UniProt P14902)
- testProtocol: LLE_IDO_ABS_DR (IDO assay, method not described)
Cut-off 700 nM on IC50: below means yes (1), at or above means no (0).

Cc1ccc(NC(=O)Nc2cc(-c3cccc(Cl)c3C(=O)O)ccc2Oc2ccccc2C(C)(C)C)cc1 : yes (1)
COc1ccc(-c2ccc(Oc3ccccc3C3CC3)c(NC(=O)Nc3ccc(C)cc3)c2)cc1C(=O)O : no (0)
O=C(Nc1ccc(OC(F)(F)F)cc1)Nc1cc(-c2ccccc2-c2nnn[nH]2)cc(CC2CC2)c1Oc1ccccc1 : yes (1)

Challenge: Criterion: IC50 strictly below 700 nM. Is it met by COc1ccc(-c2ccc(Oc3ccccc3C3CC3)c(NC(=O)Nc3ccccc3C)c2)cc1C(=O)O ?
Response given: no (0)

Challenge: Quick check: does CCCOc1c(CCC)cc(-c2cc(F)ccc2C(=O)O)cc1NC(=O)Nc1ccc(C)cc1 have IC50 under 700 nM?
Response given: yes (1)

Challenge: Lab log: compare recorded IC50 with 700 nM; is it strictly lower for COc1ccc(-c2ccc(Oc3ccccc3C(C)(C)C)c(NC(=O)Nc3ccccc3C)c2)c(-c2nnn[nH]2)c1 ?
Response given: no (0)

Challenge: Hi there! Is IC50 for Cc1ccc(NC(=O)Nc2cc(-c3ccc(C(=O)O)nc3)ccc2Oc2ccccc2C(C)(C)C)cc1 below 700 nM, do you know?
Response given: no (0)

Challenge: Strictly below 700 nM in IC50? COc1ccc(-c2ccc(Oc3ccccc3C(C)(C)C)c(NC(=O)Nc3ccccc3C)c2)c(C(=O)O)c1
Response given: no (0)

Challenge: Does the reported IC50 of C=CC(c1ccccc1)c1cc(-c2ccccc2C(=O)O)cc(NC(=O)Nc2ccc(C)cc2)c1OC1CCC(F)(F)CC1 (stereo not drawn) stay below 700 nM?
Response given: no (0)

Challenge: Given the entry COc1ccc(-c2ccc(Oc3ccccc3C(C)(C)C)c(NC(=O)Nc3ccc(OC(F)(F)F)cc3)c2)cc1C(=O)O , would its reported IC50 be below 700 nM?
Response given: no (0)

----------
- systemName: IDO (Homo sapiens (Human))
- testProtocol: Kynurenine assay in IFN-γ-stimulated Hela cells
- Type: cell-based
- conditionNotes: 20 h, read-out: Hela Kyurenine (IC50)
As shown below, each of these compounds has a reported IC50 value.
A complete answer gives the number followed by the unit.

Before answering, review these 4 worked examples.
COc1ccc(-c2ccc(Oc3cccc4c3OC(C)(C)C4)c(NC(=O)Nc3ccccc3Cl)c2)cc1C(=O)O : 590 nM
CCCc1ccccc1Oc1ccc(-c2ccc(OC)c(C(=O)O)c2)cc1NC(=O)Nc1ccc(C)cc1 : 330 nM
Cc1ccc(NC(=O)Nc2cc(-c3cccc(F)c3C(=O)O)ccc2Oc2ccccc2C(C)(C)C)cc1 : 90 nM
COc1ccc(-c2ccc(Oc3ccccc3C(C)(C)C)c(NC(=O)Nc3ccc(Cl)c(Cl)c3)c2)cc1C(=O)O : 370 nM

Challenge: Let me know recorded IC50 for Cc1ccc(NC(=O)Nc2cc(-c3cccc(C(=O)O)c3)ccc2Oc2cccc(Cl)c2)cc1 , thanks.
Response given: 250 nM

Challenge: Tell us which IC50 value is on record for COc1ccc(-c2ccc(Oc3ccccc3Cl)c(NC(=O)Nc3cccc(C)c3)c2)cc1C(=O)O
Response given: 900 nM

Challenge: Give a short answer stating reported IC50 for Cc1ccc(NC(=O)Nc2cc(-c3ccccc3-c3nnn[nH]3)ccc2Oc2ccccc2C(C)(C)C)cc1 .
Response given: 30 nM

Challenge: Using known records, supply IC50 for COc1ccc(-c2ccc(O[C@@H]3CCCC[C@H]3C)c(NC(=O)Nc3cccc(C)c3)c2)cc1C(=O)O (relative stereo)
Response given: 390 nM

Challenge: Report measured IC50; entry is COc1ccc(-c2ccc(Oc3cccc4c3CCCC4=O)c(NC(=O)Nc3ccccc3Cl)c2)cc1C(=O)O
Response given: 530 nM

Challenge: Given COc1ccc(-c2ccc(Oc3ccccc3C(C)(C)C)c(NC(=O)Nc3ccccc3)c2)cc1C(=O)O , respond with its IC50.
Response given: 80 nM

Challenge: Give the reported value of IC50 for this record: Cc1ccccc1NC(=O)Nc1cc(-c2cccc(F)c2C(=O)O)ccc1Oc1ccccc1C(C)(C)C
Response given: 1480 nM

Challenge: Supply reported IC50 belonging to this compound: CC(C)(C)c1ccccc1Oc1ccc(-c2cc(F)cc(C(=O)O)c2)cc1NC(=O)Nc1ccccc1Cl
Response given: 1100 nM

Challenge: Retrieve IC50 measured for O=C(Nc1ccc(OC(F)(F)F)cc1)Nc1cc(-c2cccc(C(=O)O)c2)ccc1Oc1ccc(Cl)cc1 and print it.
Response given: 1820 nM

----------
- systemName: IDO (Homo sapiens (Human), UniProt P14902)
- testProtocol: LLE_IDO_ABS_DR (IDO assay, method not described)
reportedEndpoint: log10(IC50) (log10 of the value in µM)
For clarity, the numbers are log10 values of IC50 expressed in µM.

CCCCCc1cc(-c2ccccc2-c2nnn[nH]2)cc(NC(=O)Nc2ccccc2F)c1OCCC : -2.01
COc1ccc(-c2ccc(Oc3c(C)cccc3C(C)(C)C)c(NC(=O)Nc3ccccc3Cl)c2)cc1C(=O)O : 0.40
C/C=C/Cc1cc(-c2cc(F)ccc2C(=O)O)cc(NC(=O)Nc2ccc(C)cc2)c1OCc1ccccc1 : -0.07
CCCC(Oc1ccc(-c2cc(F)ccc2C(=O)O)cc1NC(=O)Nc1ccc(C)cc1)c1ccccc1Cl (stereo not drawn) : 0.74

We next turn to a different molecule, shown below.
Challenge: Report measured log10(IC50); entry is COc1ccc(-c2ccc(Oc3cccc4ccccc34)c(NC(=O)Nc3ccccc3C)c2)cc1C(=O)O
Response given: -0.52

----------
- systemName: IDO (Homo sapiens (Human), UniProt P14902)
- testProtocol: Kynurenine assay in IFN-γ-stimulated Hela cells
- Assay type: cell-based
- conditionNotes: 20 h, read-out: Hela Kyurenine (IC50)
This section presents compounds with their documented IC50 values.
Write the number in nM without appending the unit.

Some entries whose results are on file:
CC(C)(C)c1ccccc1Oc1ccc(-c2cc(Cl)ccc2C(=O)O)cc1NC(=O)Nc1ccccc1Cl : 1300
CC(C)(C)c1ccccc1Oc1ccc(-c2cc(Cl)cc(C(=O)O)c2)cc1NC(=O)Nc1ccc(OC(F)(F)F)cc1 : 4560
COc1ccc(-c2ccc(Oc3ccccc3C(C)(C)C)c(NC(=O)Nc3ccc(C(C)(C)C)cc3)c2)cc1C(=O)O : 220

Let's switch to this compound now.
Challenge: Specify IC50 for Cc1cccc(NC(=O)Nc2cc(-c3cc(F)cc(C(=O)O)c3)ccc2Oc2ccccc2C(C)(C)C)c1 , system IDO (Homo sapiens (Human), UniProt P14902).
Response given: 740

----------
- systemName: IDO (Homo sapiens (Human))
- testProtocol: LLE_IDO_ABS_DR (IDO assay, method not described)
// IC50 lookup, one value per entry
Please make sure the unit comes right after the number.

C/C=C/Cc1cc(-c2ccccc2-c2nnn[nH]2)cc(NC(=O)Nc2ccc(C)cc2)c1OCc1ccccc1 : 160 nM
CCCCc1cc(-c2ccccc2-c2nnn[nH]2)cc(NC(=O)Nc2ccc(C)cc2)c1OCCC : 20 nM
COc1ccc(-c2ccc(Oc3ccccc3C(C)(C)C)c(NC(=O)Nc3ccccc3Cl)c2)cc1C(=O)O : 340 nM

Now for the molecule whose IC50 we want.
Challenge: Note IC50 for the molecule shown: C#CCOc1cccc(Oc2ccc(-c3ccc(OC)c(C(=O)O)c3)cc2NC(=O)Nc2ccccc2Cl)c1C
Response given: 140 nM
